Form field: MIC (one value per entry).
# Test system: Candida albicans
# METHOD_NOTES: microbe, parasite or virus in culture
# Format: functional
# Description: Antifungal activity against Candida albicans
Please give a number only; it is taken to be in µg/mL.

Use the examples below as a reference point.
| INPUT_SMILES | MIC (µg/mL) |
| --- | --- |
| COc1ccc(-[n+]2noc([O-])c2CNc2nc3c([N+](=O)[O-])cccc3s2)cc1 | 20 |
| COc1ccc(NCc2c([O-])on[n+]2-c2ccc(OC)cc2)cc1 | 200 |
| COc1ccc(-c2nc3ccccc3n2Cc2c([O-])on[n+]2-c2ccc(OC)cc2)cc1 | 200 |
| COc1ccc(-[n+]2noc([O-])c2CNc2cc(Cl)ccc2Cl)cc1 | 300 |
| COc1ccc(-[n+]2noc([O-])c2CNc2nc3ccc(C)cc3s2)cc1 | 100 |

Task item: Record lookup: for Candida albicans, what MIC belongs to COc1ccc(-[n+]2noc([O-])c2CNc2nc3ccc([N+](=O)[O-])cc3s2)cc1 ?
Reply: 100

Task item: Record lookup: for Candida albicans, what MIC belongs to COc1ccc(-[n+]2noc([O-])c2CNc2ccc(Br)cc2)cc1 ?
Reply: 200

----------
Form field: zone of inhibition at 300 µg/mL (one value per entry).
# System: Staphylococcus aureus
# METHOD_NOTES: microbe, parasite or virus in culture
# Assay type: functional
# CONDITIONS_USED: read-out: IZ
# Description: Antibacterial activity against Staphylococcus aureus at 300 ug/ml
Please give a number only; it is taken to be in mm.

| INPUT_SMILES | TARGET_OF_ASSAY | ENDPOINT_UNIT | zone of inhibition at 300 µg/mL |
| --- | --- | --- | --- |
| COc1ccc(-[n+]2noc([O-])c2Cn2c(-c3ccccc3[N+](=O)[O-])nc3ccccc32)cc1 | Staphylococcus aureus | mm | 21 |
| COc1ccc(-[n+]2noc([O-])c2CNc2nc3ccc(C#N)cc3s2)cc1 | Staphylococcus aureus | mm | 16 |
| COc1ccc(-[n+]2noc([O-])c2CNc2ccc(Cl)cc2)cc1 | Staphylococcus aureus | mm | 12 |
| COc1ccc(-[n+]2noc([O-])c2Cn2c(-c3cccc(Br)c3)nc3ccccc32)cc1 | Staphylococcus aureus | mm | 10 |
| CCOc1ccc2nc(NCc3c([O-])on[n+]3-c3ccc(OC)cc3)sc2c1 | Staphylococcus aureus | mm | 14 |

Task item: Any idea what its zone of inhibition at 300 µg/mL is? The compound is COc1ccc(-[n+]2noc([O-])c2CNc2nc3cc([N+](=O)[O-])ccc3s2)cc1
Reply: 10

Task item: Any idea what its zone of inhibition at 300 µg/mL is? The compound is COc1ccc(-[n+]2noc([O-])c2CNc2ccccc2[N+](=O)[O-])cc1
Reply: 11

Task item: Any idea what its zone of inhibition at 300 µg/mL is? The compound is COc1ccc(-[n+]2noc([O-])c2CNc2nc3ccc(F)cc3s2)cc1
Reply: 12

Task item: Any idea what its zone of inhibition at 300 µg/mL is? The compound is COc1ccc(-[n+]2noc([O-])c2Cn2c(-c3ccc(Cl)cc3)nc3ccccc32)cc1
Reply: 12

----------
# Tested on: Staphylococcus aureus
# METHOD_NOTES: microbe, parasite or virus in culture
# Assay type: functional
# Description: Antibacterial activity against Staphylococcus aureus
QUANTITY_NAME: log10 MIC (log10 of the value in µg/mL)
Would you kindly interpret these values as log10 of MIC expressed in µg/mL?

Use the examples below as a reference point.
| INPUT_SMILES | log10 MIC |
| --- | --- |
| COc1ccc(-[n+]2noc([O-])c2CNc2ccc(F)cc2)cc1 | 2.30 |
| COc1ccc(-[n+]2noc([O-])c2CNc2ccccc2Cl)cc1 | 2.48 |

Task item: Any idea what its log10 MIC is? The molecule is COc1ccc(-[n+]2noc([O-])c2CNc2cc(Cl)ccc2Cl)cc1
Reply: 2.48

Task item: Any idea what its log10 MIC is? The molecule is COc1ccc(-[n+]2noc([O-])c2Cn2cnc3ccccc32)cc1
Reply: 2.48

----------
# Test system: Pseudomonas aeruginosa
# METHOD_NOTES: microbe, parasite or virus in culture
# Type: functional
# Description: Antibacterial activity against Pseudomonas aeruginosa
Form field: MIC (one value per entry).
Please give a number only; it is taken to be in µg/mL.

Use the examples below as a reference point.
| INPUT_SMILES | TARGET_OF_ASSAY | ENDPOINT_UNIT | MIC |
| --- | --- | --- | --- |
| CN[C@@H]1[C@H](O[C@H]2[C@H](O[C@H]3[C@H](O)[C@@H](O)[C@H](N=C(N)N)[C@@H](O)[C@@H]3N=C(N)N)O[C@@H](C)[C@]2(O)C=O)O[C@@H](CO)[C@H](O)[C@H]1O | Pseudomonas aeruginosa | µg/mL | 0.5 |
| COc1ccc(-[n+]2noc([O-])c2Cn2c(-c3ccccc3Br)nc3ccccc32)cc1 | Pseudomonas aeruginosa | µg/mL | 200 |
| COc1ccc(-[n+]2noc([O-])c2Cn2c(-c3ccc([N+](=O)[O-])cc3)nc3ccccc32)cc1 | Pseudomonas aeruginosa | µg/mL | 300 |

Okay, now this compound:
Task item: Record lookup: for Pseudomonas aeruginosa, what MIC belongs to COc1ccc(-c2nc3ccccc3n2Cc2c([O-])on[n+]2-c2ccc(OC)cc2)cc1 ?
Reply: 300

----------
# Tested on: Staphylococcus aureus
# METHOD_NOTES: microbe, parasite or virus in culture
# Type: functional
# CONDITIONS_USED: read-out: IZ
Form field: zone of inhibition at 300 µg/mL (one value per entry).
Please give a number only; it is taken to be in mm.

| COMPOUND | TARGET_OF_ASSAY | zone of inhibition at 300 µg/mL, mm |
| --- | --- | --- |
| COc1ccc(-[n+]2noc([O-])c2Cn2c(-c3ccc(OC)c([N+](=O)[O-])c3)nc3ccccc32)cc1 | Staphylococcus aureus | 10 |
| COc1ccc(NCc2c([O-])on[n+]2-c2ccc(OC)cc2)cc1 | Staphylococcus aureus | 16 |
| COc1ccc(-[n+]2noc([O-])c2CNc2ccc(C)cc2)cc1 | Staphylococcus aureus | 13 |
| COc1ccc(-[n+]2noc([O-])c2CNc2ccccc2Cl)cc1 | Staphylococcus aureus | 12 |
| COc1ccc(-[n+]2noc([O-])c2CNc2nc3ccc([N+](=O)[O-])cc3s2)cc1 | Staphylococcus aureus | 16 |

Task item: Record lookup: for Staphylococcus aureus, what zone of inhibition at 300 µg/mL belongs to CC1(C)S[C@@H]2[C@H](NC(=O)Cc3ccccc3)C(=O)N2[C@H]1C(=O)O [PENICILLIN G] ?
Reply: 45

Task item: Record lookup: for Staphylococcus aureus, what zone of inhibition at 300 µg/mL belongs to COc1ccc(-[n+]2noc([O-])c2Cn2c(-c3ccccc3Br)nc3ccccc32)cc1 ?
Reply: 10

Task item: Record lookup: for Staphylococcus aureus, what zone of inhibition at 300 µg/mL belongs to COc1ccc(-[n+]2noc([O-])c2CNc2ccc(Br)cc2)cc1 ?
Reply: 10

Task item: Record lookup: for Staphylococcus aureus, what zone of inhibition at 300 µg/mL belongs to COc1ccc(-[n+]2noc([O-])c2Cn2c(-c3ccc(Cl)cc3Cl)nc3ccccc32)cc1 ?
Reply: 10

Task item: Record lookup: for Staphylococcus aureus, what zone of inhibition at 300 µg/mL belongs to COc1ccc(-[n+]2noc([O-])c2CNc2cc(Cl)ccc2Cl)cc1 ?
Reply: 11

----------
# Tested on: Escherichia coli
# METHOD_NOTES: microbe, parasite or virus in culture
# Type: functional
# Description: Antibacterial activity against Escherichia coli
QUANTITY_NAME: MIC (µg/mL)
Please give a number only; it is taken to be in µg/mL.

| MOLECULE | ENDPOINT_UNIT | MIC |
| --- | --- | --- |
| COc1ccc(-[n+]2noc([O-])c2Cn2c(-c3ccc(Cl)c(Cl)c3)nc3ccccc32)cc1 | µg/mL | 300 |

Task item: Record lookup: for Escherichia coli, what MIC belongs to COc1ccc(-[n+]2noc([O-])c2CNc2ccccc2[N+](=O)[O-])cc1 ?
Reply: 200

Task item: Record lookup: for Escherichia coli, what MIC belongs to COc1ccc(-[n+]2noc([O-])c2Cn2c(-c3ccc(Cl)cc3Cl)nc3ccccc32)cc1 ?
Reply: 300

Task item: Record lookup: for Escherichia coli, what MIC belongs to COc1ccc(-[n+]2noc([O-])c2CNc2nc3ccc(C)cc3s2)cc1 ?
Reply: 300

Task item: Record lookup: for Escherichia coli, what MIC belongs to COc1ccc(-[n+]2noc([O-])c2CNc2nc3ccc(OC)cc3s2)cc1 ?
Reply: 200

Task item: Record lookup: for Escherichia coli, what MIC belongs to COc1ccc(-[n+]2noc([O-])c2Cn2c(-c3ccc(OC)c([N+](=O)[O-])c3)nc3ccccc32)cc1 ?
Reply: 200

Task item: Record lookup: for Escherichia coli, what MIC belongs to COc1ccc(-[n+]2noc([O-])c2CNc2ccccc2Cl)cc1 ?
Reply: 300

Values were extracted from ChEMBL document CHEMBL3045422.
